system: MDA-MB-231 breast; test: NCI tumour cell line growth inhibition, 48 h
READOUT_TYPE: TGI

The cases that follow already have their TGI on record.
MOLECULE	TGI
CC(=O)NC1CONC1=O (centres undefined)	> 100 µM
CC(Cl)CN1c2ccccc2Sc2ccc(Cl)cc21 (centres undefined)	> 10 µM
CS(=O)(=O)CS(=O)(=O)OCCCl	918 µM

Lookup: Specify TGI for `CCCCCCCCCCCC(=O)OC[C@@H](C[As](=O)(O)O)OC(=O)CCCCCCCCCCC` and stop.
Found: 15.4 µM

Lookup: Specify TGI for CC(=O)O[C@@]12CO[C@@H]1CC(O)[C@@]1(C)C(=O)[C@H](O)C3=C(C)C(O)C[C@@](O)(C(OC(=O)c4ccccc4)C12)C3(C)C (some centres undefined) and stop.
Found: 66 µM

Lookup: Specify TGI for `O=C1CC(=O)NC(=NN2C(=O)/C(=C/c3ccc(Cl)c(Cl)c3)N=C2c2ccccc2)N1` and stop.
Found: 51.7 µM

Lookup: Specify TGI for `O=C(Cn1c2ccc(Br)cc2c2nc3ccccc3nc21)NNC(=S)NC1CCCCC1` and stop.
Found: 31.6 µM

Lookup: Specify TGI for `CCC(=O)OCN(C)c1nc(N(C)COC(=O)CC)nc(N(C)COC(=O)CC)n1` and stop.
Found: > 100 µM

Lookup: Specify TGI for CCOC(=O)C(Cc1ccc(O)cc1)Nc1nc(=O)c2c(=O)oc(Cl)cc2o1 (centres undefined) and stop.
Found: 23.1 µM

Lookup: Specify TGI for `Cc1c2ccc3ccccc3c2c[n+]2ccccc12` and stop.
Found: > 82.3 µM

Lookup: Specify TGI for CC1=NC(C)(COC(=O)C2(C)NC(C)(CO)CO2)COC1=O (centres undefined) and stop.
Found: > 100 µM

Lookup: Specify TGI for `Nc1c(C(=O)Nc2ccccc2Cl)sc2nc3c(cc12)C(=O)CCC3` and stop.
Found: > 100 µM

Lookup: Specify TGI for CCOC(=O)C(NC(=O)c1ccccc1)(N1CCN(c2cc3c(cc2F)c(=O)c(C(=O)O)cn3C2CC2)CC1)C(F)(F)F (centres undefined) and stop.
Found: 31 µM

Lookup: Specify TGI for `C=C1CCCCCCCCC/C=C/1SCCCSC` and stop.
Found: > 100 µM

Lookup: Specify TGI for `CCCn1cnc2c(SCc3ccc(Cl)cc3)nc(N)nc21` and stop.
Found: 60.1 µM

Lookup: Specify TGI for CCCCC1Cc2cc(O)ccc2-c2nc3cc(O)ccc3n21 (centres undefined) (tested in a mixture with another compound) and stop.
Found: 31.3 µM

Lookup: Specify TGI for O=C1OCC2OC(=O)c3cc(O)c(O)c(O)c3-c3c(O)c(O)c(O)c4c3C(=O)OC(C2OC(=O)c2cc(O)c(O)c(O)c2-c2c1cc(O)c(O)c2O)C1OC(=O)C2C4=C(O)C(=O)C23Oc2cc(O)c4c(c2[C@H]13)O[C@H](c1ccc(O)c(O)c1)[C@@H](O)C4 (some centres undefined) and stop.
Found: 43.5 µM

Lookup: Specify TGI for `C=CC1(CC[C@]2(c3ccc(OC)c(OC)c3)C=[N+]([O-])O[C@H](O[C@@H]3CCCC[C@H]3C(C)(C)c3ccccc3)C2)OCC(C)(C)CO1` and stop.
Found: 33.9 µM

Lookup: Specify TGI for `Cc1ccc(C(=O)NCc2ccccc2)cc1N=NN(C)C` and stop.
Found: > 100 µM
